Test system: UACC-62 melanoma
protocolDetails: NCI-60 one-dose screen, 48 h (100 = growth as untreated, 0 = no growth, -100 = all killed)
appliedConditions: 10 µM unless noted
This is part of a sample that, as a whole, favours compounds with a hit. Of some 83,000 tested, about 20% had one in any assay.
Class membership depends on growth alone; the intervals are lower band: < 40%; central band: ≥ 40% and < 80%; upper band: ≥ 80%

Request: Bin this entry: N#Cc1c(-c2ccc(Cl)cc2)nc(NN=Cc2cccc(Cl)c2)nc1N1CCOCC1
Response: upper band

Request: Bin this entry: C=C(C)[C@@H]1CCC[C@]2(C(=O)OC)CC[C@]3(C)[C@@H](CC[C@@H]4[C@@]5(C)CCCNC(C)(C)[C@@H]5CC[C@]43C)[C@@H]12
Response: upper band

Request: Bin this entry: COc1cccc(-c2nn(-c3ccccc3)cc2-c2ccnc(-c3cccnc3)c2)c1
Response: upper band

Request: Bin this entry: O=C(/C=C/c1cccc([N+](=O)[O-])c1)c1ccc(Nc2nc(Nc3ccc(F)cc3)nc(Nc3ccc(Cl)cc3)n2)cc1
Response: upper band

Request: Bin this entry: Cn1cc(-c2ccc3c(Nc4cccc(NC(=O)Nc5cccc(F)c5)c4)ncnc3c2)cn1
Response: lower band

Request: Bin this entry: O=c1c2cccc3c(N4CCOCC4)ccc(c32)c2nc3ccccc3n12
Response: central band

Request: Bin this entry: O=C(/C=C/c1ccc([N+](=O)[O-])cc1)c1cccc(Nc2nc(Nc3ccccc3)nc(Nc3ccccc3)n2)c1
Response: upper band

Request: Bin this entry: CN1CCN(Cc2ccc(NC(=O)c3cncc(C#Cc4c(N)ncc5c(F)cccc45)c3)cc2C(F)(F)F)CC1
Response: lower band

Request: Bin this entry: COCCn1cc(-c2nc(-c3cc4cccnc4n3C)cs2)c2cc(OC)ccc21
Response: central band

Request: Bin this entry: COc1cc(-c2c(-c3ccccc3)c[nH]c2C(=O)NCCCO)c(OC)c2c1OCO2
Response: upper band

Request: Bin this entry: O=C(CNc1ncco1)Nc1ccc(S(=O)(=O)c2ccc(NC(=O)CNc3ncco3)cc2)cc1
Response: lower band

Request: Bin this entry: COc1cc(CNC(=O)CCCC/C=C/C(C)C)ccc1OCc1cn(-c2cccc([N+](=O)[O-])c2)nn1
Response: central band

Request: Bin this entry: COc1ccc(C(c2cc(OC)c(OC)c(OC)c2)n2cncn2)cc1O (stereo not drawn)
Response: lower band

Request: Bin this entry: O=C1/C(=C/c2ccc(-c3ccc(Cl)cc3)o2)SC(=S)N1CCc1ccc(O)cc1
Response: central band

Request: Bin this entry: CCN(CC)CCOc1ccc(/C(=C(\C)Cc2ccc(OC)cc2)c2ccc(O)cc2)cc1
Response: lower band
